# maps each entry to its pIC50
Target: Casein kinase I isoform delta (Homo sapiens)
Sequence (P48730 whole entry, canonical isoform): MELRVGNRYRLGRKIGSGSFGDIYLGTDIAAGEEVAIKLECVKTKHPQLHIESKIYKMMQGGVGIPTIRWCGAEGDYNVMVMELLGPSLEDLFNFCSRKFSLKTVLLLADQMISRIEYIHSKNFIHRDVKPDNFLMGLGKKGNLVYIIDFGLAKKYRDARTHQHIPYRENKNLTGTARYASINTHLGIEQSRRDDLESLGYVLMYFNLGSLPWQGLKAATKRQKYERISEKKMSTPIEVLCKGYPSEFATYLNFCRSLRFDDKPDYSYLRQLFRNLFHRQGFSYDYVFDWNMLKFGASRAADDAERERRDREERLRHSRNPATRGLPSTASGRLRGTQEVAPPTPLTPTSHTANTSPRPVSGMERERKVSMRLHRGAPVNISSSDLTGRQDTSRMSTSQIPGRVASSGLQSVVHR
Assay: Inhibition of CK1delta
Lab note — pIC50 values are minus log10 of concentrations in M.

Some entries whose results are on file:
{"CPD_SMILES": "Nc1ccc(N)c2c1C(=O)c1ccccc1C2=O", "pIC50": 6.48}
{"CPD_SMILES": "Nc1ccc(O)c2c1C(=O)c1ccccc1C2=O", "pIC50": 6.18}

Now for a further compound.
get_value(item= `COc1cc(OC)c(C=C2C(=O)Nc3ccccc32)c(OC)c1` , readout=pIC50) returns 5.59

* * *

Molecular target: Tyrosine-protein kinase CSK (Homo sapiens, UniProt P41240)
Sequence (P41240 whole entry): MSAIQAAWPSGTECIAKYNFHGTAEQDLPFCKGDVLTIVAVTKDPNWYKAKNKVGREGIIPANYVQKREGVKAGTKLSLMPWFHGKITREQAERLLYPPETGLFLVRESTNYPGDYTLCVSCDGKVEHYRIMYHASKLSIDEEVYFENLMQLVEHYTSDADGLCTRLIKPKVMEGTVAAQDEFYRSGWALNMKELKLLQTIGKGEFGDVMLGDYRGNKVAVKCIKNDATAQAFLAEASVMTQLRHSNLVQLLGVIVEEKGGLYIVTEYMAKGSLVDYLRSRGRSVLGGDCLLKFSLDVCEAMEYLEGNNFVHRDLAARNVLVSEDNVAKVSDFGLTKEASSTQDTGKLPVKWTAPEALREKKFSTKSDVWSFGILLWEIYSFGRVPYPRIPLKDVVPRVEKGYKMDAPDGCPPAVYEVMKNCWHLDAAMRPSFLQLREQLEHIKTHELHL
VALUE_KIND: IC50

Entry under test: `Nc1ccc(N)c2c1C(=O)c1ccccc1C2=O` . Its IC50 was > 40 µM

* * *

Biological target: Serine/threonine-protein kinase pim-1 (Homo sapiens)
Sequence (P11309 whole entry): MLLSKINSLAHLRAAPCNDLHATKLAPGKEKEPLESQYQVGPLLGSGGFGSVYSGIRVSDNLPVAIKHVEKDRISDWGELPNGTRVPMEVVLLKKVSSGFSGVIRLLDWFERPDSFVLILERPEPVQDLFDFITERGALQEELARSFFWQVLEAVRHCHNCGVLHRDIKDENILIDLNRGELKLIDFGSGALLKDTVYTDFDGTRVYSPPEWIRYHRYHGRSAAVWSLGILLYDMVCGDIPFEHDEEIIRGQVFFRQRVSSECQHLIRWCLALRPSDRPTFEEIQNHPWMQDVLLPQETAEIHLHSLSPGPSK
VALUE_KIND: IC50 (µM)
State just the number; it will be interpreted in µM.

Reported Serine/threonine-protein kinase pim-1 (Homo sapiens) IC50 for item `Nc1ccc(N)c2c1C(=O)c1ccccc1C2=O` was 24.7

* * *

Molecular target: Casein kinase I isoform gamma-1 (Homo sapiens)
Sequence (Q9HCP0 whole entry, canonical isoform): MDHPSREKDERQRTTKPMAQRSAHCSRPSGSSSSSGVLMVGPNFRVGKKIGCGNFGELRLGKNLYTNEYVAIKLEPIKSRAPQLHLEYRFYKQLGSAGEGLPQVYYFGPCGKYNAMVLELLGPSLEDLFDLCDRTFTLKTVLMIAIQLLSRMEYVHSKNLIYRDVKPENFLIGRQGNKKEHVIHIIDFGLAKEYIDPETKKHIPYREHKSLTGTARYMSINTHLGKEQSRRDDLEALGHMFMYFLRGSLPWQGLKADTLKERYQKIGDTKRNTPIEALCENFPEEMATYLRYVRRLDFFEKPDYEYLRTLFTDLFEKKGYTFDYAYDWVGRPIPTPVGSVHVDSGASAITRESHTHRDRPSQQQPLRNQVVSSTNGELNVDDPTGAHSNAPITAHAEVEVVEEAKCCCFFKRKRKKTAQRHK
Experiment: Inhibition of CK1gamma1
VALUE_KIND: IC50

# count of solved cases: 3
{"MOLECULE": "COc1cc(OC)c(C=C2C(=O)Nc3ccccc32)c(OC)c1 [IC261]", "IC50": "> 40 µM"}
{"MOLECULE": "Nc1ccc(O)c2c1C(=O)c1ccccc1C2=O", "IC50": "26.2 µM"}
{"MOLECULE": "Nc1ccc(N)c2c1C(=O)c1ccccc1C2=O", "IC50": "34 µM"}

Now for a further molecule.
response.value for O=C1c2ccccc2C(=O)c2c(O)ccc(O)c21 [QUINIZARIN] (field: IC50) = > 40 µM

* * *

Biological target: ALK tyrosine kinase receptor (Homo sapiens, UniProt Q9UM73)
Sequence (Q9UM73 whole entry): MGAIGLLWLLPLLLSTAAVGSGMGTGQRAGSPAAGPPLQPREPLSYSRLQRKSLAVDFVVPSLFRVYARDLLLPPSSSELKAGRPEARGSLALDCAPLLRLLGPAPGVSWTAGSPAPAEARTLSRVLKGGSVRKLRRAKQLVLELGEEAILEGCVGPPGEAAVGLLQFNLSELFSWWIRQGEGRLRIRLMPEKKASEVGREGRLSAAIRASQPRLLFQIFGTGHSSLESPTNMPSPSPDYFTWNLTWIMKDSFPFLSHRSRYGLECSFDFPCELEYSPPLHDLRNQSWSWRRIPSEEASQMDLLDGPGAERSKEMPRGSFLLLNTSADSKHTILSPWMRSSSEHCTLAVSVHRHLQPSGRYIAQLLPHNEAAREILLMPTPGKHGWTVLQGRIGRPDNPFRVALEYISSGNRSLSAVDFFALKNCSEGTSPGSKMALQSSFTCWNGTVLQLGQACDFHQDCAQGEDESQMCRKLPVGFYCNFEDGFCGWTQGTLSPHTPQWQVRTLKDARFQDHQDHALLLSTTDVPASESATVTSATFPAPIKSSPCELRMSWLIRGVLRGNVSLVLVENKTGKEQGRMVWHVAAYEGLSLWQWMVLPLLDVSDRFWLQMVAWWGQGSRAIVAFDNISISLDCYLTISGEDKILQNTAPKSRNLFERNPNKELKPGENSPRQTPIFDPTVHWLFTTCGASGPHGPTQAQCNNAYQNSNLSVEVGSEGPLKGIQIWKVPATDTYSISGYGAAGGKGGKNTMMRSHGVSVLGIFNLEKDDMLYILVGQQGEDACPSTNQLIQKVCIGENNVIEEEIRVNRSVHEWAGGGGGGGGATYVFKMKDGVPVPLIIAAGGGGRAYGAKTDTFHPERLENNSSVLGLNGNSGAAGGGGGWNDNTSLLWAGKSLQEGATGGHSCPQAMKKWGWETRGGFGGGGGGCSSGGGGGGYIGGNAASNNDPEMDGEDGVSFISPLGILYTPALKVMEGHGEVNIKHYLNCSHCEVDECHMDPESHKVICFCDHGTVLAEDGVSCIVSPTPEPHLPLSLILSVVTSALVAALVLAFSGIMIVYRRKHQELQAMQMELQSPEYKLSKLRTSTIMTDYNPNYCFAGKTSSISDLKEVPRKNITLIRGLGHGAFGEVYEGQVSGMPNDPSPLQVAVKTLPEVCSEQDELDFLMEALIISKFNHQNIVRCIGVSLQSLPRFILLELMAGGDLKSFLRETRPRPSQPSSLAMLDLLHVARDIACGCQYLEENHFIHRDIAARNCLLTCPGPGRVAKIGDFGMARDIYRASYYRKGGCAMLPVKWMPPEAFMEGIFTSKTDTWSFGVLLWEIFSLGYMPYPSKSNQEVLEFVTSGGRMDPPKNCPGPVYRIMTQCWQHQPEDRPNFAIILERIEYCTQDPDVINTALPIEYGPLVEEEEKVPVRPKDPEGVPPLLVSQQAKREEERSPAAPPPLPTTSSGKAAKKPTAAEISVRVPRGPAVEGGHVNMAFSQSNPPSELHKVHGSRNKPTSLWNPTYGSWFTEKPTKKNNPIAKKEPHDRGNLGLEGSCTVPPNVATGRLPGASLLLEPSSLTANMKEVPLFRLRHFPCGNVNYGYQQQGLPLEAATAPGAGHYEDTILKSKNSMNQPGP
pIC50: −log10 of the molar value.
VALUE_KIND: pIC50

Consider `Nc1ccc(N)c2c1C(=O)c1ccccc1C2=O` . Its measured pIC50 is < 4.40

* * *

pIC50 overview
Biological target: Casein kinase I isoform alpha (Homo sapiens)
Sequence (P48729 whole entry, canonical isoform): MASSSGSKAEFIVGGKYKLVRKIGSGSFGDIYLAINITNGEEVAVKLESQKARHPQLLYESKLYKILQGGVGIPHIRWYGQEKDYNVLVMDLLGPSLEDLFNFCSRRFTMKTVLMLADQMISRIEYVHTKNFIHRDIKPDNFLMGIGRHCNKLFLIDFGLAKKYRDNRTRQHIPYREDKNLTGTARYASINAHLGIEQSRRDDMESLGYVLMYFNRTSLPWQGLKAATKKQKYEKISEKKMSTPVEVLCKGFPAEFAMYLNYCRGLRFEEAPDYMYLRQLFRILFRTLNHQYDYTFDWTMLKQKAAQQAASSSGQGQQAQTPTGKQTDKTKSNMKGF
Experiment: Inhibition of CK1alpha
API: returns pIC50 as number; meaning -log10 of concentration in mol/L.

Example results:
{"CPD_SMILES": "COc1cc(OC)c(C=C2C(=O)Nc3ccccc32)c(OC)c1", "VALUE_KIND": "pIC50", "MEASURED_RESULT": 5.91}
{"CPD_SMILES": "Nc1ccc(N)c2c1C(=O)c1ccccc1C2=O", "VALUE_KIND": "pIC50", "MEASURED_RESULT": 5.40}

Moving on to the next molecule.
Quick note, pIC50 for `Nc1ccc(O)c2c1C(=O)c1ccccc1C2=O` landed at 5.40

* * *

Target: Tyrosine-protein kinase Fgr (Homo sapiens, UniProt P09769)
Sequence (P09769 whole entry): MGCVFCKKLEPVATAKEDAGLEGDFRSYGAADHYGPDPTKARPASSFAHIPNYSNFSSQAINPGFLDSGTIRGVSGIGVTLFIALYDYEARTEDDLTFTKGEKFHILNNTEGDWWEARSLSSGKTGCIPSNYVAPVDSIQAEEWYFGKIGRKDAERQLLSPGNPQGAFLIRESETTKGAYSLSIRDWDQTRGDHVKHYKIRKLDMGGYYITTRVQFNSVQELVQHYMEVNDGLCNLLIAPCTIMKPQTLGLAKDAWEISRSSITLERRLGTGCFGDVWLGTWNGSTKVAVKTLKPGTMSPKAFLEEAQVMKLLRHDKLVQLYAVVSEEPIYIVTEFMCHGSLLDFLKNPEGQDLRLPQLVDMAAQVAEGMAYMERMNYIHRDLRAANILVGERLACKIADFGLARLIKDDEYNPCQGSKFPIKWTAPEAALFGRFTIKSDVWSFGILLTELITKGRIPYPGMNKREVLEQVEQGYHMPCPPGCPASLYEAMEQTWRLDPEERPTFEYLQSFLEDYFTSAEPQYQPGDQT
VALUE_KIND: pIC50
Lab note — pIC50 values are minus log10 of concentrations in M.

Tested on Tyrosine-protein kinase Fgr (Homo sapiens, UniProt P09769): `Nc1ccc(N)c2c1C(=O)c1ccccc1C2=O` . Observed pIC50: 4.62

* * *

Biological target: Dual specificity tyrosine-phosphorylation-regulated kinase 1A (Homo sapiens, UniProt Q13627)
VALUE_KIND: pIC50
Note on pIC50: it is the negative log10 of concentration, concentration in mol/L.

Noted for `Nc1ccc(N)c2c1C(=O)c1ccccc1C2=O` : its pIC50 reads 5.44

* * *

Molecular target: Tyrosine-protein kinase SYK (Homo sapiens, UniProt P43405)
Assay: Inhibition of Syk
VALUE_KIND: IC50

Recorded IC50 (molecule `Nc1ccc(N)c2c1C(=O)c1ccccc1C2=O` ): > 40 µM
